Sourced from patent US7964531B2

Tested on: Scirpus joncoides
ASSAY METHOD TEXT: Test Example 1: herbicidal effects, paddy-field pot test
Type: in vivo
MEASUREMENT CONTEXT: chemical dosage 25 g/a; wettable powder applied 3 days after transplanting; judged after 25 days
MEASURE: Herbicidal effects Scirpus joncoides

The following compounds have reported results that may help.
* CCCc1cccc(F)c1Oc1nnc(Cl)cc1O [Example 234] | 4 (Growth inhibition rate; 71 to 90%)
* Cc1ccccc1Oc1nnc(Cl)cc1O [Example 1] | 5 (Growth inhibition rate; 91 to 100%)
* Cc1cc(C)c(C)c(Oc2nnc(Cl)cc2O)c1 [Example 286] | 5 (Growth inhibition rate; 91 to 100%)
* Cc1ccc(C)c(Oc2nnc(Cl)cc2O)c1C [Example 295] | 5 (Growth inhibition rate; 91 to 100%)

Here is the next item to consider.
Quick one: Herbicidal effects Scirpus joncoides for Cc1cc(C)c(Oc2nnc(Cl)cc2O)c(C)c1 [Example 317] ?
3 (Growth inhibition rate; 51 to 70%)
